Task for the reader: assign each of the following variants its reported protein stability index.
B1: CHIT1 (parent)
chain: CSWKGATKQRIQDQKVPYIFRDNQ

Variants of: B1
TEST_SUMMARY: protein stability index of a GFP-peptide fusion (GPS, HEK-293T) (PSI 1-6); higher = more stable;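 note: lentivirally expressed fusions sorted by FACS into six bins by GFP to DsRed ratio, PSI derived from sequencing read proportions per bin multiplied by bin number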
APPLIED_CONDITIONS: c terminus: a fixed tail appended

// for each variant in input: emit protein stability index
1. K15N
2. S2D
3. C1V
4. G5V
5. R10G
6. Q24C
7. I11T
8. A6L

Found:
1. 2.75
2. 3.06
3. 2.91
4. 2.32
5. 2.38
6. 3.02
7. 2.66
8. 2.43

// for each variant in input: emit protein stability index
1. P17R
2. P17E
3. Q24P
4. R10P
5. T7Q
6. G5H

Found:
2.67
2.3
2.48
2.47
2.89
2.59

// for each variant in input: emit protein stability index
1. N23D
2. D22C
3. A6D
4. R10A
5. S2M

Found:
3.53
1.66
3.47
3.57
2.43
